Here the recorded Papp is given for each entry.
assay: in vitro; conditions: human, Caco-2, Caco-2 (cm/sec)
*1 amine or outer side, *2 acyl side, *3 side chain or, on linkers, in order; H or OH if unused. Where a SMILES comes first, the peptide text is derived from it. Bridges are numbered along the chain shown (N, C = ends). [ ]: non-standard residue; d: D form. The star is where a group is joined. Tyr(3-F) = N[C@@H](Cc1ccc(O)c(F)c1)C(=O)O; NMehPhe = CN[C@@H](CCc1ccccc1)C(=O)O; X7 = O=C(C[C@H](COCCO)N[*:1])[*:2]; NMeF = CN[C@@H](Cc1ccccc1)C(=O)O; NMeGABA = CN(CCCC(=O)[*:2])[*:1]; Butyl(3-Me,3-OH) = CC(C)(O)CC*; NMeL = CN[C@@H](CC(C)C)C(=O)O; NMeA = CN[C@@H](C)C(=O)O; Piperidide = C1CCN(*)CC1; NBuGly = CCCCNCC(=O)O; Sar = CNCC(=O)O; tBu = CC(C)(C)*
Kindly provide the numeric value in ×10⁻⁶ cm/s only, without the unit symbol.

Sample records with Papp:
Prompt: What value of Papp has been recorded for this entry: CCCCN1CC(=O)N(C)[C@@H](CC(C)C)C(=O)N[C@@H](COCCO)CC(=O)N(C)[C@@H](Cc2ccccc2)C(=O)N(C)[C@@H](CC(C)C)C(=O)N[C@H](C(=O)N2CCCCC2)CC(=O)N[C@H](CC(C)C)C(=O)N(C)[C@@H](CC(C)C)C(=O)N[C@@H](Cc2ccccc2)C(=O)N(C)[C@@H](CC(C)C)C(=O)N[C@@H]([C@@H](C)O)C1=O [AP21] ([dL][NMeL]F[NMeL]T[NBuGly][NMeL][X7][NMeF][NMeL]D-Piperidide; lactam N-11)
Response: 0.21

Prompt: What value of Papp has been recorded for this entry: CC(C)C[C@@H]1NC(=O)[C@H](C)N(C)C(=O)C[C@@H](C(=O)N2CCCCC2)NC(=O)[C@H](CC(C)C)N(C)C(=O)CN(C)C(=O)[C@H]([C@@H](C)O)NC(=O)[C@H](CC(C)C)N(C)C(=O)[C@H](CCc2ccccc2)N(C)C(=O)[C@H](COCCC(C)(C)O)NC(=O)[C@H](Cc2ccccc2)N(C)C(=O)[C@H](CC(C)C)N(C)C1=O [AP56] ([NMeA]L[NMeL][NMeF]S(Butyl(3-Me,3-OH))[NMehPhe][NMeL]T[Sar][NMeL]D-Piperidide; lactam N-11)
Response: 1.3

Prompt: What value of Papp has been recorded for this entry: CC(C)C[C@H]1C(=O)N[C@H](C(=O)N2CCCCC2)CC(=O)N(C)CCCC(=O)N(C)[C@@H](CC(C)C)C(=O)N[C@@H](Cc2ccc(O)c(F)c2)C(=O)N(C)[C@@H](CC(C)C)C(=O)N(C)[C@@H](Cc2ccccc2)C(=O)N[C@@H](COC(C)(C)C)C(=O)N(C)[C@@H](CC(C)C)C(=O)N[C@@H]([C@@H](C)O)C(=O)N(C)CC(=O)N1C [pd114] ([NMeGABA][NMeL][Tyr(3-F)][NMeL][NMeF]S(tBu)[NMeL]T[Sar][NMeL]D-Piperidide; lactam N-11)
Response: 0.17

***
Prompt: What value of Papp has been recorded for this entry: CC[C@H](C)[C@@H]1NC(=O)[C@H](CC(C)C)N(C)C(=O)CCCN(C)C(=O)C[C@@H](C(=O)N2CCCCC2)NC(=O)[C@H](CC(C)C)N(C)C(=O)[C@H](C)N(C)C(=O)[C@H]([C@@H](C)O)NC(=O)[C@H](CC(C)C)N(C)C(=O)[C@H](Cc2ccc(O)c(F)c2)NC(=O)[C@H](CC(C)C)N(C)C(=O)[C@H](Cc2ccccc2)N(C)C1=O [pd119] ([NMeGABA][NMeL]I[NMeF][NMeL][Tyr(3-F)][NMeL]T[NMeA][NMeL]D-Piperidide; lactam N-11)
Response: 0.16

Prompt: What value of Papp has been recorded for this entry: CC(C)C[C@H]1C(=O)N[C@@H](Cc2ccc(O)cc2)C(=O)N(C)[C@@H](CC(C)C)C(=O)N(C)[C@@H](Cc2ccccc2)C(=O)N[C@@H](COC(C)(C)C)C(=O)N(C)[C@@H](CC(C)C)C(=O)N[C@@H]([C@@H](C)O)C(=O)N(C)[C@@H](CC(C)C)C(=O)N(C)[C@@H](CC(C)C)C(=O)N[C@H](C(=O)N2CCCCC2)CC(=O)N(C)CCCC(=O)N1C [Compound F04] ([NMeGABA][NMeL]Y[NMeL][NMeF]S(tBu)[NMeL]T[NMeL][NMeL]D-Piperidide; lactam N-11)
Response: 0.13
